Recorded IC50 for the following compounds
target: PI3K alpha (Homo sapiens); construct: p85(iSH2) fusion partner (see partner chain) (N); His tag (C); Tn5 (Trichoplusia ni) or TiniPro insect cells; assay: PI3K alpha kinase assay (Kinase-Glo luminescence)
Sequence (P42336 with tags, fused parts or gaps limits assumed): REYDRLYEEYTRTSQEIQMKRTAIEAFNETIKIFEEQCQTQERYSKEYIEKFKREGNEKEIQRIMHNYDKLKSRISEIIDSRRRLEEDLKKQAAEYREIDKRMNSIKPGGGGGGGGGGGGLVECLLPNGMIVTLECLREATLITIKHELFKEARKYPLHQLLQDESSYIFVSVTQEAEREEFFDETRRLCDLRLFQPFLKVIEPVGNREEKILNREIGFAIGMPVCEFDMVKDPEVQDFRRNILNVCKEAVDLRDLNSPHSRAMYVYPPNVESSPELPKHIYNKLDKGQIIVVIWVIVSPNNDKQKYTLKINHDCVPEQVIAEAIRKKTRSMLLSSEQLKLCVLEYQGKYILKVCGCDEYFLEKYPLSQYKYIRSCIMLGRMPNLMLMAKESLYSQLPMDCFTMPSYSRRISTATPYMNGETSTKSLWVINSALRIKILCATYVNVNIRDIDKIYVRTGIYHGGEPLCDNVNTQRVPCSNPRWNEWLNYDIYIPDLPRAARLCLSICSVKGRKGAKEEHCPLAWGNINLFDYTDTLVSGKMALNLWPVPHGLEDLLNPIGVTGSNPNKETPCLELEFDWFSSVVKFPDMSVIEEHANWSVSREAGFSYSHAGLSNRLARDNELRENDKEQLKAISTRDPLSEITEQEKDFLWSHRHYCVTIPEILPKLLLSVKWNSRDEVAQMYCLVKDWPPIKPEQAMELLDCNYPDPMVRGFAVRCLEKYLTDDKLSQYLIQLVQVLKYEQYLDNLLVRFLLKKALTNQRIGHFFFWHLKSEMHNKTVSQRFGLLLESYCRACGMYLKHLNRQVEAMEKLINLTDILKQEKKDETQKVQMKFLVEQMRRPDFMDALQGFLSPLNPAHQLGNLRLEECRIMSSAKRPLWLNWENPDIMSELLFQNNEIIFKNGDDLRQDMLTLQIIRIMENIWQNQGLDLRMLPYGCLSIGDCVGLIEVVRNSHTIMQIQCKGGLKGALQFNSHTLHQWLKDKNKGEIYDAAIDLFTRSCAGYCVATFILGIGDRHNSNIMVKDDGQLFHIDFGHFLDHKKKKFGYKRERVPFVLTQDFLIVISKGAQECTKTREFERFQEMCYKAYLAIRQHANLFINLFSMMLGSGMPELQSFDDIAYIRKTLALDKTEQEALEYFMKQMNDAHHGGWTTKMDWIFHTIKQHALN
Please respond with the number in nM and leave the unit unwritten.

// known answers, use as guide
CCn1c(=O)n(-c2cn(C)nc2C)c2c3nc(-c4ccc(OC)c(OC)c4)ccc3ncc21 [Example 251] = 28
Cc1nn(C)cc1-n1c(=O)n(C)c2cnc3ccc(-c4cncnc4)cc3c21 [Example 26] = 103
Cc1nn(C)cc1-n1c(=O)n(C)c2cnc3ccc(-c4cncc(C(C)O)c4)cc3c21 (racemic) [Example 217] = 8
COc1ccc(-c2ccc3ncc4c(c3c2)n(-c2c(C)nn(C)c2C)c(=O)n4C)cc1OC [Example 1.9] = 28

response.value for CCOc1ccc(-c2ccc3ncc4c(c3c2)n(-c2cn(CC(=O)N(C)C)nc2C)c(=O)n4C)cn1 [Example 3.9] (field: IC50) = 21

response.value for CCOc1ccc(-c2ccc3ncc4c(c3c2)n(-c2cn(C)nc2Cl)c(=O)n4C)cn1 [Example 3.8] (field: IC50) = 16

response.value for Cc1nn(C(C)C)cc1-n1c(=O)n(C)c2cnc3ccc(-c4cnc(F)c(N)c4)cc3c21 [Example 149.1] (field: IC50) = 48

src = patent US20140005163A1
